assay protocol: Fluorescence quantum yield
Format: physicochemical
details: pH 3.4, xanthene OH protonated
Excerpt: Correlation between fluorescence quantum yield and the oxidation potential of the benzene ring moiety of each compound prepared above was studied. As clearly shown by the results in the figure, the fluorescence quantum yield of each compound changed depending on the oxidation potential of the benzene ring moiety. […]
Let's look at some compounds and their measured Φfl (pH 3.4).

compound string: COc1ccc(OC)c(-c2c3ccc(=O)cc-3oc3cc(O)ccc23)c1
Φfl (pH 3.4): 0.000
--
compound string: COc1ccc(C)cc1-c1c2ccc(=O)cc-2oc2cc(O)ccc12
Φfl (pH 3.4): 0.004
--
compound string: Cc1ccccc1-c1c2ccc(=O)cc-2oc2cc(O)ccc12
Φfl (pH 3.4): 0.319
--
compound string: Cc1ccc(-c2c3ccc(=O)cc-3oc3cc(O)ccc23)c(C)c1
Φfl (pH 3.4): 0.307
--
compound string: Cc1ccc(C)c(-c2c3ccc(=O)cc-3oc3cc(O)ccc23)c1
Φfl (pH 3.4): 0.319

Hey, just so you know, these numbers are from patent US7868147B2.
